Source: BigSolDB 2.1

# Stated conditions: in acetone, 318.15 K
Attribute measured: solubility (mole fraction)
API note: the answer field is a bare number with no unit suffix.

The compound O=C1/C(=C/c2ccc(O)cc2)CCC/C1=C\c1ccc(O)cc1 showed solubility (mole fraction) equal to 0.0114

* * *

# Stated conditions: in acetic acid, 308.15 K
Attribute measured: solubility (mole fraction)
API note: the answer field is a bare number with no unit suffix.

The compound O=C1/C(=C/c2ccc(O)cc2)CCC/C1=C\c1ccc(O)cc1 showed solubility (mole fraction) equal to 0.0036

* * *

# Stated conditions: in acetone, 303.15 K
Attribute measured: solubility (mole fraction)
API note: the answer field is a bare number with no unit suffix.

The molecule O=C1/C(=C/c2ccc(O)cc2)CCC/C1=C\c1ccc(O)cc1 showed solubility (mole fraction) equal to 0.0061
